Tested on: K4 kissing-loop RNA reporter;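 note: bound reporter read as fluorescence of individual clusters on recovered sequencing chips by microscopy, with normalized cluster intensities fitted with a binding model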
Assay: apparent KD of K4 kissing-loop reporter; higher = weaker reporter binding
Details: Eterna round: R107; input ligand: tryptophan 2.4 mM
measured endpoint: apparent KD of K4 kissing-loop reporter

>>> print(df.to_string())
                     macromolecule_sequence  meas_value
0  UUGGAGUGAUGUUCCAUGUCUUGAGCCGAAGGAGCGCCUUUCUAGGCAGGUAGGUCGCGGCAGAAGGUACCAGUGAUGUUGGAAA [Same State Arginine A GF9]      164 nM
1  GGUUUAUAGGAGGAUACCAGUACGAAUAAAGUACAUUAAUAGUAGAGUGAUGUUCUAAAGUACCCUUGGCAGCUUAGAUUAAGUU [ExTheophylB.H]     77.9 nM
2  UGGAGUUGACGAAAAGUCAACUCCUGAGAAGGAGCGGACGAAAGUCCAGGUAGGUCGCUCACUACCAGUGAUGUUGGUACUAAAA      203 nM
